Provide the recorded TGI for the entries that follow.
# Test system: MALME-3M melanoma
# TEST SUMMARY: NCI tumour cell line growth inhibition, 48 h

>  <COMPOUND>
C#CCn1c(=O)c(C#N)c(O)c2cc3ccccc3nc21

>  <TEST RESULT>
> 100 µM

$$$$

# per-item lookup of TGI; items listed below
1. COC(=O)c1nc(N)[nH]c(=O)c1CCCCCc1c(C(=O)OC)nc(N)[nH]c1=O
2. COC(=O)C1=C(C(=O)OC)SC(=C(Cl)C(=S)Sc2ccccc2N)S1
3. O=c1[nH]c(Nc2cccc(Cl)c2)nc2nc[nH]c12
4. Cc1ccc(S(=O)(=O)c2c(O)c3ccccc3n(C)c2=O)cc1
5. CC(=O)O[C@@H]1C2C(=O)OC(=O)C2C2CCC[C@]23O[C@H]13 (stereo partly specified)

Result block:
1: > 50 µM; 2: > 100 µM; 3: > 100 µM; 4: > 100 µM; 5: > 100 µM
